Data origin: ChEMBL document CHEMBL4680098

# experiment description: Cytotoxicity in uninfected human PBMC assessed as reduction in cell viability by XTT assay
# Format: tissue-based
# condition notes: pbmc
I'd appreciate it if you could supply CC50 values for the items below.

Dear colleague, please send me the reported CC50 for CCCCCCCCCCCCCCCCSSCc1ccccc1COP(=O)(O)CO[C@H](C)Cn1cnc2c(N)ncnc21 when you can.
15.9 µM

Note CC50 for the compound shown: CCCCCCCCCCCCCCCCSSc1ccccc1COP(=O)(O)CO[C@H](C)Cn1cnc2c(N)ncnc21
17.2 µM

Identify CC50 associated with the compound C[C@H](Cn1cnc2c(N)ncnc21)OCP(=O)(O)OCCCCS
> 100 µM

Respond only with CC50 recorded for C[C@H](Cn1cnc2c(N)ncnc21)OCP(=O)(O)O [TENOFOVIR ANHYDROUS]
> 100 µM

Check the records and state CC50 for CCCCCCCCCCCCCCCCSSCCCCOP(=O)(O)CO[C@H](C)Cn1cnc2c(N)ncnc21
> 50 µM

Determine its reported CC50: C[C@H](Cn1cnc2c(N)ncnc21)OCP(=O)(O)OCCS
> 100 µM
